Biological target: UniProt:P50579
Sequence (P50579 whole entry, species assumed): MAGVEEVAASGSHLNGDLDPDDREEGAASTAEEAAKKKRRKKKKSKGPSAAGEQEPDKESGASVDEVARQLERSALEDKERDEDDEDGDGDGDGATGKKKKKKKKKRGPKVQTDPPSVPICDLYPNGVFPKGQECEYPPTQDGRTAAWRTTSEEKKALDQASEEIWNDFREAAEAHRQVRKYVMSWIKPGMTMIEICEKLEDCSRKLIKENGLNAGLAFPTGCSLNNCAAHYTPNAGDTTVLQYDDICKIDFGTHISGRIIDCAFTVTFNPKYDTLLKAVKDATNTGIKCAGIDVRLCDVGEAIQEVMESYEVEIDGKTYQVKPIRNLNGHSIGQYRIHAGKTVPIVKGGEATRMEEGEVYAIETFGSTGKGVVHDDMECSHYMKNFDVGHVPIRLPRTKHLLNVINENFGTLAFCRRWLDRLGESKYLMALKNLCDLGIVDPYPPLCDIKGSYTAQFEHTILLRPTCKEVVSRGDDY
pIC50: −log10 of the molar value.
MEASURED PARAMETER: pIC50

• CCN(CC)CCOc1ccc(/C=C/C(=O)O[C@@H]2CC[C@]3(CO3)[C@@H]([C@@]3(C)O[C@@H]3CC=C(C)C)[C@@H]2OC)cc1 [Compound A] = > 8.00

Origin of values: patent US9067913B2
